Measured values drawn from PubChem BioAssay (NCI) for this set.

system: OVCAR-8 ovarian; assay: NCI-60 one-dose screen, 48 h (100 = growth as untreated, 0 = no growth, -100 = all killed); details: 10 µM unless noted
The panel holds about 83,000 compounds, 20% with a hit somewhere; the sample as a whole holds those more often.
measured property: growth (%)
Respond numerically; units are % and should not be typed.

Solved cases below.
CN(C)c1ccc(-c2c(NC(C)(C)C)nc3c(OCCc4ccccc4)cccn23)cc1 18.7
O=C1Nc2cc(Cl)ccc2/C1=C\c1ccc(OCc2ccc([N+](=O)[O-])cc2)cc1 78.8

# next compound below
Looking up O=C(CSc1nc2sc3c(c2c(=O)n1-c1ccc(Cl)cc1)CCCC3)NNC(=O)Nc1cccc(C(F)(F)F)c1 , I see its growth listed as 22.1
